# Target or test system: p110δ/p85α (Homo sapiens (Human))
# Sequence (O00329 whole entry): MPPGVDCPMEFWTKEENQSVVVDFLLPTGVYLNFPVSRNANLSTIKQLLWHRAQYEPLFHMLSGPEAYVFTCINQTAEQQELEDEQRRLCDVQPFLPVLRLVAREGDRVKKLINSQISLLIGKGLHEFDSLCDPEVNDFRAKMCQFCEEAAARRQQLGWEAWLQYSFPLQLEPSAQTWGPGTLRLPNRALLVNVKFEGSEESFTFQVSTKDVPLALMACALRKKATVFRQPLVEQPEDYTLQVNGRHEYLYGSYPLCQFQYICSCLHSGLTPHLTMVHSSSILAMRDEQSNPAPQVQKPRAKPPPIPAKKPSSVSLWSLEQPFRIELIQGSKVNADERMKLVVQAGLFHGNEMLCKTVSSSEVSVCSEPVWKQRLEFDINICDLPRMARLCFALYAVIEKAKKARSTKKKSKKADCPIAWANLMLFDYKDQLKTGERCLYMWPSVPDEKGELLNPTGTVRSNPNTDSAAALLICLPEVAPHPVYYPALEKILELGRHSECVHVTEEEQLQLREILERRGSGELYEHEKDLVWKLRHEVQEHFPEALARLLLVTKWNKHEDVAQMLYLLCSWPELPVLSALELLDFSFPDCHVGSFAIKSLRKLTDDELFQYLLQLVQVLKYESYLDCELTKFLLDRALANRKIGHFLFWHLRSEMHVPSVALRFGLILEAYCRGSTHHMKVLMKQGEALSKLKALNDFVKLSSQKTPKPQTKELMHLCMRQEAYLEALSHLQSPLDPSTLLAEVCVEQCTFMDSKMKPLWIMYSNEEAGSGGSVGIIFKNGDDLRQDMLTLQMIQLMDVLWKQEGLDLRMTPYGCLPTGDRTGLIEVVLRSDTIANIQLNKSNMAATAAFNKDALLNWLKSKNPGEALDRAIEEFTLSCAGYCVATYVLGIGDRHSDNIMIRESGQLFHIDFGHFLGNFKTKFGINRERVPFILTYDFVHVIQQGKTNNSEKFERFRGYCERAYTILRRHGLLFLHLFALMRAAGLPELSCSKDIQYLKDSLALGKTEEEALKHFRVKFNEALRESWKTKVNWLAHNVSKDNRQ
# Sequence (P27986 whole entry partner): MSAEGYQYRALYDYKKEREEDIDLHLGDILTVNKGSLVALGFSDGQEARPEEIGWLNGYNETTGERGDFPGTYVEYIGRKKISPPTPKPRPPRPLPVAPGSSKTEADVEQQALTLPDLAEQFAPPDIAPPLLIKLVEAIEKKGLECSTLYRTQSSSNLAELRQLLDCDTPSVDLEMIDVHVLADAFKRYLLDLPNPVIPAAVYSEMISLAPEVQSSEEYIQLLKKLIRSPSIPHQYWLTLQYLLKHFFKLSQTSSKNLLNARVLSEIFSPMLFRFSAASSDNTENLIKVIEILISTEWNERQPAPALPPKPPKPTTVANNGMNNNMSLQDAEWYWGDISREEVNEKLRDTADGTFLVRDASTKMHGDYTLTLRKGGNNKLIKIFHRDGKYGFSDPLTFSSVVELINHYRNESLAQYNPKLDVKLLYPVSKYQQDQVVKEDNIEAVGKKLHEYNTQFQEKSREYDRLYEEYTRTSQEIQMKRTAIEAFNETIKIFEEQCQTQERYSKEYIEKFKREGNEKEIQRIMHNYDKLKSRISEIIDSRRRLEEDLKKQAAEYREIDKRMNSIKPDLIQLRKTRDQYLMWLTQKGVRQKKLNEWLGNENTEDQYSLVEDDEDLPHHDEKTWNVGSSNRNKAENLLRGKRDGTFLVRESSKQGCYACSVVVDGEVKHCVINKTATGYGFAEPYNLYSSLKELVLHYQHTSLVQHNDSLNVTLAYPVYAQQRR
# Method description: PI3K δ inhibition assay (TLC lipid kinase or HTRF)
Value kind: IC50

>>> readout_value("Nc1ncnc2c1c(-c1cc(O)cc(F)c1)nn2Cc1cccnc1N1CCCC1 [Compound 124]")
"> 1 µM"
>>> readout_value("CN1CCN(c2nc3ccccc3nc2Cn2nc(-c3ccc4nc(N)sc4c3)c3c(N)ncnc32)CC1 [Compound 199]")
"< 0.1 µM"
>>> readout_value("Cc1ccccc1-c1nc2ccccc2nc1Cn1nc(-c2cccc(O)c2)c2c(N)ncnc21 [Compound 108]")
"0.1 to 1 µM"
>>> readout_value("Nc1ncnc2c1c(-c1cc(O)cc(F)c1)nn2Cc1cc2ccccc2[nH]c1=O [Compound 114]")
"< 0.1 µM"
>>> readout_value("Cc1ccccc1-c1nc2ccccc2cc1Cn1nc(I)c2c(N)ncnc21 [Compound 3]")
"< 0.1 µM"
>>> readout_value("Cc1cn(-c2nc3ccccc3cc2Cn2nc(-c3ccc4nc(N)sc4c3)c3c(N)ncnc32)cn1 [Compound 176]")
"< 0.1 µM"
